Target: Programmed cell death protein 1/Programmed cell death 1 ligand 1 (Homo sapiens, UniProt Q15116+Q9NZQ7)
Sequence (Q15116 whole entry): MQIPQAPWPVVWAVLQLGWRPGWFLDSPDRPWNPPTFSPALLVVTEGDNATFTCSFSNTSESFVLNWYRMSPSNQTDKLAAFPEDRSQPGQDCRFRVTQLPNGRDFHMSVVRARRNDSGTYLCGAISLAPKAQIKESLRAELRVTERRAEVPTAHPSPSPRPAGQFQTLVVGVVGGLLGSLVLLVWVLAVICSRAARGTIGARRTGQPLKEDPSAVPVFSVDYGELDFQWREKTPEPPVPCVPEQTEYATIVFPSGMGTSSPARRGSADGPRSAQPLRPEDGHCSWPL
Sequence (Q9NZQ7 whole entry): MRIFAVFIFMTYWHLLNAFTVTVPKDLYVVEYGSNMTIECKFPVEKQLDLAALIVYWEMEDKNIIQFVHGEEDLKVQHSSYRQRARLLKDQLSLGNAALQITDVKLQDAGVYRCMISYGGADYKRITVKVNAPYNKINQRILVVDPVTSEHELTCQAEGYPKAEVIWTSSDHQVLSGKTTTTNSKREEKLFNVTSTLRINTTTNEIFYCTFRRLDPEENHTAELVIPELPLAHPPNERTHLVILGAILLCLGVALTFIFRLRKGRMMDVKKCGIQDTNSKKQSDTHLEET
Assay: Inhibition of PD-1/PDL1 interaction (unknown origin) by HTRF assay
# if measured IC50 < 700 nM: met  # else: not met

[in] # check: IC50 < 700 nM for CC(=O)NCCNCc1cccc(C(=O)N2CCc3c(-c4ccccc4)cccc32)c1
[out] not met

[in] Is 700 nM strictly greater than the compound's reported IC50? compound: O=C(c1ccc(CNCCO)c(O)c1)N1CCc2c(-c3ccccc3)cccc21
[out] met

[in] Is it true that IC50 reported for CC(=O)NCCNCc1ccc(C(=O)N2CCc3c(-c4ccccc4)cccc32)cc1Cl is less than 700 nM?
[out] met

[in] Is IC50 strictly under 700 nM for the entry COc1cc(C(=O)N2CCc3c(-c4ccc5c(c4)OCCO5)cccc32)ccc1CNCCO ?
[out] met

[in] Please determine if COc1cc(C(=O)N2CCc3c(-c4ccccc4)cccc32)cc(OC)c1CNCCNC(C)=O is below 700 nM in terms of IC50.
[out] not met
